Data origin, for the record: paper PMC8460535

Biological target: human 5-HT2A receptor (Homo sapiens, UniProt P28223)
Construct: purchased PerkinElmer; host or cells: CHO-K1 cells, stably transfected
Sequence (P28223 whole entry): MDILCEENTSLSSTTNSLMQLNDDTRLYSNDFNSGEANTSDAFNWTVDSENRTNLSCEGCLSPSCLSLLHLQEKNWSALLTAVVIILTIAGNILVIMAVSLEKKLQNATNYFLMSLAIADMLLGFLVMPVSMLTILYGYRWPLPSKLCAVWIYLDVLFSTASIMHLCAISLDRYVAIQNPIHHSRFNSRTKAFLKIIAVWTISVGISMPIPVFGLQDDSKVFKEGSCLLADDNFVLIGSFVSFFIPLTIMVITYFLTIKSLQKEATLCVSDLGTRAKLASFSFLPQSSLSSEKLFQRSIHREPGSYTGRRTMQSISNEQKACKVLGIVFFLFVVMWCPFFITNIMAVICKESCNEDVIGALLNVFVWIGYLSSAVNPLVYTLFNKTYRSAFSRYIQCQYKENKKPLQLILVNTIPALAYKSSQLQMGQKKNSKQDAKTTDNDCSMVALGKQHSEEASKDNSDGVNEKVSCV
Test: Aequorin luminescence-based intracellular calcium assay in CHO cells expressing human 5-HT2A
Format: cell-based
Details: cells expressing human 5-HT2A receptors, antagonist mode vs α-methylserotonin 30 nM; read-out: pKB ± SEM b (converted)
METRIC_NAME: Kb
I'd appreciate it if you wrote the number followed by its unit.

COMPOUND	Kb
CC1(c2ccccc2)NC(=O)N(CCN2CCN(C(c3ccccc3)c3ccccc3)CC2)C1=O (centres unmarked) [Compound 2]	1970 nM
O=C1NC2(CCC(c3ccccc3)CC2)C(=O)N1CCCN1CCN(c2ccc(F)cc2)CC1 (centres unmarked) [Compound 11]	175 nM
CC1(c2ccccc2)NC(=O)N(CCCN2CCN(c3ccc(F)cc3)CC2)C1=O (centres unmarked) [Compound 5]	9290 nM
O=C1NC2(CCC(c3ccccc3)CC2)C(=O)N1CCCN1CCN(c2ccccc2F)CC1 (centres unmarked) [Compound 9]	1990 nM

Ask | Which measured Kb value corresponds to CC1(c2ccccc2)NC(=O)N(CCCN2CCN(c3cccc(F)c3)CC2)C1=O (centres unmarked) [Compound 4] ?
Reply | 9230 nM
